- Test system: SK-OV-3
- assay: Inhibition of cells growth by colorimetric (SRB) assay, SK-OV-3
- appliedConditions: Homo sapiens, SK-OV-3, 48 h, read-out: GI50 SKOV-3, SRB assay, 48 hours exposure

{"compound": "CC(C)c1c2cccnc2n2c(N)nccc12", "targetSystem": "SK-OV-3", "unitName": "µM", "inequalitySign": "=", "GI50": 15.7}
{"compound": "Nc1nccc(-c2c3cc(F)c(Cl)nc3n3c(N)nccc23)n1", "targetSystem": "SK-OV-3", "unitName": "µM", "inequalitySign": "=", "GI50": 15.8}
{"compound": "Nc1nccc(-c2c3cccnc3n3ccccc23)n1", "targetSystem": "SK-OV-3", "unitName": "µM", "inequalitySign": "=", "GI50": 7.12}
{"compound": "Cl.Nc1nccc(-c2c3cccnc3n3c(N)nccc23)n1", "targetSystem": "SK-OV-3", "unitName": "µM", "inequalitySign": "=", "GI50": 0.146}
{"compound": "Nc1nccc(-c2c3c(N)ccnc3n3c(N)nccc23)n1", "targetSystem": "SK-OV-3", "unitName": "µM", "inequalitySign": "=", "GI50": 0.465}
{"compound": "Nc1nccc2c(-c3ccncn3)c3c(OCc4ccccc4)ccnc3n12", "targetSystem": "SK-OV-3", "unitName": "µM", "inequalitySign": "=", "GI50": 10.6}
{"compound": "CCOc1nccc(-c2c3cccnc3n3c(N)nccc23)n1", "targetSystem": "SK-OV-3", "unitName": "µM", "inequalitySign": "=", "GI50": 1.3}
{"compound": "C[S+]([O-])c1nccc(-c2c3c(Cl)ccnc3n3c(N)nccc23)n1 (stereo not shown)", "targetSystem": "SK-OV-3", "unitName": "µM", "inequalitySign": "=", "GI50": 11.9}
{"compound": "Nc1nccc2c(-c3cccc([N+](=O)[O-])c3)c3cccnc3n12", "targetSystem": "SK-OV-3", "unitName": "µM", "inequalitySign": "=", "GI50": 22.3}
{"compound": "CSc1nccc(-c2c3cccnc3n3ccccc23)n1", "targetSystem": "SK-OV-3", "unitName": "µM", "inequalitySign": "=", "GI50": 7.73}
{"compound": "CSc1nccc2c(-c3cccs3)c3cccnc3n12", "targetSystem": "SK-OV-3", "unitName": "µM", "inequalitySign": "≥", "GI50": 33.6}
{"compound": "COc1ccc2nc3c(cc2c1)c(-c1ccnc(SC)n1)c1ccnc(N)n13 [Compound 18b]", "targetSystem": "SK-OV-3", "unitName": "µM", "inequalitySign": "≥", "GI50": 25.7}
{"compound": "COc1ccc2nc3c(cc2c1)c(-c1ccnc(N)n1)c1ccnc(N)n13 [Compound 19b]", "targetSystem": "SK-OV-3", "unitName": "µM", "inequalitySign": "=", "GI50": 8.28}
{"compound": "COc1ccc(CNc2ccnc3c2c(-c2ccnc([S+](C)[O-])n2)c2ccnc(NCc4ccc(OC)cc4)n23)cc1 (stereo not shown)", "targetSystem": "SK-OV-3", "unitName": "µM", "inequalitySign": "≥", "GI50": 17.3}
{"compound": "Cl.Nc1nccc(-c2c3cc4ccccc4nc3n3c(N)nccc23)n1", "targetSystem": "SK-OV-3", "unitName": "µM", "inequalitySign": "=", "GI50": 1.08}
{"compound": "Nc1nccc2c(-c3ccnc(O)n3)c3c(O)ccnc3n12", "targetSystem": "SK-OV-3", "unitName": "µM", "inequalitySign": "=", "GI50": 5.73}
{"compound": "Cl.Nc1nccc2c(-c3ccncn3)c3cccnc3n12", "targetSystem": "SK-OV-3", "unitName": "µM", "inequalitySign": "=", "GI50": 1.06}
{"compound": "CSc1nccc(-c2c3cccnc3n3c(N(C(C)=O)C(C)=O)nccc23)n1", "targetSystem": "SK-OV-3", "unitName": "µM", "inequalitySign": "=", "GI50": 0.28}
{"compound": "CS(=O)(=O)c1nccc(-c2c3c(Cl)ccnc3n3c(N)nccc23)n1", "targetSystem": "SK-OV-3", "unitName": "µM", "inequalitySign": "=", "GI50": 2.05}
